Target: Tyrosine-protein kinase JAK3 (Homo sapiens)
Sequence (P52333 whole entry): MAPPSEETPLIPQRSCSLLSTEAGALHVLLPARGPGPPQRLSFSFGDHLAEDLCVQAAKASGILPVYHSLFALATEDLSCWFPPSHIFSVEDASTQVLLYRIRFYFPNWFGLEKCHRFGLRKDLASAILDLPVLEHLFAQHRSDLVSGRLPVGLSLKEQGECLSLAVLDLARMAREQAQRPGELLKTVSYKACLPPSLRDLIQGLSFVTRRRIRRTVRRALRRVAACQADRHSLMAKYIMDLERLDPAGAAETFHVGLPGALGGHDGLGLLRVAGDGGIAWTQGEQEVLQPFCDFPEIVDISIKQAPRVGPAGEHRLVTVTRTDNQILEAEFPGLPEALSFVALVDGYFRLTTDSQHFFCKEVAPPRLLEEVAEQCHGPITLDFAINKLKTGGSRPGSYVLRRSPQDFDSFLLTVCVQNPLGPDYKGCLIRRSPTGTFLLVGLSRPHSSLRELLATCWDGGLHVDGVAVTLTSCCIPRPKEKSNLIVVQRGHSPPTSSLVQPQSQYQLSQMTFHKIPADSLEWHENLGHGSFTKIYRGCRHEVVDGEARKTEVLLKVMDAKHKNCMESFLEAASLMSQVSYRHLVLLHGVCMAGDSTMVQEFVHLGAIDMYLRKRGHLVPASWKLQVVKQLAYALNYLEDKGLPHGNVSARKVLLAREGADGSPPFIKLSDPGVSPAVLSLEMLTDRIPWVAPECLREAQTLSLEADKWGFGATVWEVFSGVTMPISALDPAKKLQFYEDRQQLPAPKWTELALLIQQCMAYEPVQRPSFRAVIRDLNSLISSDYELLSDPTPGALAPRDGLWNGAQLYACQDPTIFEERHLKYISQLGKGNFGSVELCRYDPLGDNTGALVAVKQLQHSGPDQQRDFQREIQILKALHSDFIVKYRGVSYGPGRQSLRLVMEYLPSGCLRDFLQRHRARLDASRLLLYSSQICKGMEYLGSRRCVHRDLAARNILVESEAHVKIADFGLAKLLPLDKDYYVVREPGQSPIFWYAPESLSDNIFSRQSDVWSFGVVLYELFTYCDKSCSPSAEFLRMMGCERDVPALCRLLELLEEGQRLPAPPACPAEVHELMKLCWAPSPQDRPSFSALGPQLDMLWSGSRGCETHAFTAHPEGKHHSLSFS
Test: Inhibition of N-terminal GST-fused recombinant JAK3 (781 to 1124 residues) (unknown origin) expressed in insect cells using 5FAM-GEEPLYWSFPAKKK-NH2 as substrate by microfluidic capillary electrophoresis method
pIC50: −log10 of the molar value.
outcome measure: pIC50

Example entries begin here.
>>> numeric_result("COc1ccc(F)c(-c2nc3c(NCC4CCNCC4)c(Cl)cnc3[nH]2)c1")
5.21
>>> numeric_result("COc1ccc(-c2nc3c(OCC4CCNCC4)c(Cl)cnc3[nH]2)cc1")
5.56
>>> numeric_result("COc1ccc(-c2nc3c(NCC4CCNCC4)c(Cl)cnc3[nH]2)c(C)c1")
5.81
>>> numeric_result("COc1ccc(-c2nc3c(NCC4CCN(C)CC4)c(Br)cnc3[nH]2)cc1")
4.72
>>> numeric_result("COc1cc(F)c(-c2nc3c(NCC4CCNCC4)c(Cl)cnc3[nH]2)cc1F")
5.13

A = COc1ccc(-c2nc3c(NCC4CCNCC4)c(Cl)cnc3[nH]2)c(F)c1
B = COc1ccc(-c2nc3c(NCC4CCNCC4)c(Cl)cnc3[nH]2)cc1
C = CN1CCC(CNc2c(Cl)cnc3[nH]c(-c4ccc(S(C)(=O)=O)cc4)nc23)CC1
D = COc1ccc(-c2nc3c(NC4CCN(C)CC4)c(Cl)cnc3[nH]2)cc1
Sort ascending by pIC50. To answer, arrange all of the labels according to the requested order.
C, D, A, B
(C: 4.56, D: 4.77, A: 5.16, B: 5.95)

* * *

Biological target: UniProt O60674
Sequence (O60674 whole entry, the tested form may be a part): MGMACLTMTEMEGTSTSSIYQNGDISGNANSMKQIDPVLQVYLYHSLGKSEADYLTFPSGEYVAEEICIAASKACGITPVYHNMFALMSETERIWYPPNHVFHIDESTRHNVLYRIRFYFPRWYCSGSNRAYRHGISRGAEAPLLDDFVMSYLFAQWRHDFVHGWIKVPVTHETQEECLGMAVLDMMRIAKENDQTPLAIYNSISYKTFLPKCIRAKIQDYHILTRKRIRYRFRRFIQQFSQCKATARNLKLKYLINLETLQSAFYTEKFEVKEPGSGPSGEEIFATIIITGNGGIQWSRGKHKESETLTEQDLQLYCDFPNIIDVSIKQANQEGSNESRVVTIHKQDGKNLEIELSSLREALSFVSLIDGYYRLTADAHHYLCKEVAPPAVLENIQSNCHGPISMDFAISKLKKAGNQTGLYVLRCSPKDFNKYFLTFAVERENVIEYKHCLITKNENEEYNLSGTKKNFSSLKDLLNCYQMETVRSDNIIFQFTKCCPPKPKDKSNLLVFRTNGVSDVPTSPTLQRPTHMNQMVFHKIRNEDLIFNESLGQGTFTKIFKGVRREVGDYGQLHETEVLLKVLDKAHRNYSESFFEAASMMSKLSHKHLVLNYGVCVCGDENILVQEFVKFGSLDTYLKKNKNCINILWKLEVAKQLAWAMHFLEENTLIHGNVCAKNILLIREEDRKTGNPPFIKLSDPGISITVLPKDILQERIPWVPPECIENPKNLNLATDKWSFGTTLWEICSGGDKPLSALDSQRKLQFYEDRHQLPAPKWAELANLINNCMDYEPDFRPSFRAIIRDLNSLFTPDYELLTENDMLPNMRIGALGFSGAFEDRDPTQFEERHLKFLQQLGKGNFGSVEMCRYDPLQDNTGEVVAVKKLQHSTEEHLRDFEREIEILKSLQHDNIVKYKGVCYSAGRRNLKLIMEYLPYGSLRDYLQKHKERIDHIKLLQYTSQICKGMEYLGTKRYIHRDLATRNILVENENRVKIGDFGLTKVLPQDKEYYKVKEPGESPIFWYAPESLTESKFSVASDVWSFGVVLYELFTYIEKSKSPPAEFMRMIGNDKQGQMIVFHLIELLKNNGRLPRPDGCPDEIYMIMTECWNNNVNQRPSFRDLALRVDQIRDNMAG
Experiment: Inhibition of N-terminal GST-fused recombinant JAK2 (831 to 1132 residues) (unknown origin) expressed in insect cells using 5FAM-GEEPLYWSFPAKKK-NH2 as substrate by microfluidic capillary electrophoresis method
outcome measure: IC50 (µM)

I = COc1ccc(-c2nc3c(NCC4CCNCC4)c(Cl)cnc3[nH]2)cc1
II = COc1ccc(-c2nc3c(NCC4CCN(C)CC4)c(Cl)cnc3[nH]2)cc1OC
III = COc1ccc(-c2nc3c(NCC4CCNCC4)c(Cl)cnc3[nH]2)cc1OC
Put the listed items above in order, lowest IC50 first. To answer, arrange all of the labels according to the requested order.
I, III, II
(I: 1.45 µM, III: 2.27 µM, II: 9.9 µM)

a = COc1ccc(F)c(-c2nc3c(NCC4CCNCC4)c(Cl)cnc3[nH]2)c1
b = COc1ccc(-c2nc3c(NCC4CCNCC4)c(Cl)cnc3[nH]2)c(C)c1
Select the item with the higher value of IC50 from the options a and b listed. Record your answer as the label of the chosen record.
a
(a: 13.1 µM, b: 2.89 µM)

* * *

Organism: Homo sapiens
Assay: Selectivity ratio of IC50 for N-terminal GST-fused recombinant JAK2 (831 to 1132 residues) (unknown origin) to N-terminal GST-fused human recombinant JAK1 (866 to 1154 residues)
outcome measure: Ratio IC50

Example entries begin here.
>>> numeric_result("COc1ccccc1-c1nc2c(NCC3CCN(C)CC3)c(Cl)cnc2[nH]1")
2
>>> numeric_result("COc1ccc(-c2nc3c(NCC4CCN(C)CC4)c(Cl)cnc3[nH]2)c(C)c1")
75

1 = COc1ccc(-c2nc3c(NCC4CCNCC4)c(Cl)cnc3[nH]2)c(F)c1
2 = COc1ccc(-c2nc3c(NCC4CCNCC4)c(Cl)cnc3[nH]2)cc1OC
# return whichever of 1 and 2 has the smaller Ratio IC50 Record your answer as the label of the chosen record.
1

* * *

Target: Tyrosine-protein kinase JAK1 (Homo sapiens)
Sequence (P23458 whole entry): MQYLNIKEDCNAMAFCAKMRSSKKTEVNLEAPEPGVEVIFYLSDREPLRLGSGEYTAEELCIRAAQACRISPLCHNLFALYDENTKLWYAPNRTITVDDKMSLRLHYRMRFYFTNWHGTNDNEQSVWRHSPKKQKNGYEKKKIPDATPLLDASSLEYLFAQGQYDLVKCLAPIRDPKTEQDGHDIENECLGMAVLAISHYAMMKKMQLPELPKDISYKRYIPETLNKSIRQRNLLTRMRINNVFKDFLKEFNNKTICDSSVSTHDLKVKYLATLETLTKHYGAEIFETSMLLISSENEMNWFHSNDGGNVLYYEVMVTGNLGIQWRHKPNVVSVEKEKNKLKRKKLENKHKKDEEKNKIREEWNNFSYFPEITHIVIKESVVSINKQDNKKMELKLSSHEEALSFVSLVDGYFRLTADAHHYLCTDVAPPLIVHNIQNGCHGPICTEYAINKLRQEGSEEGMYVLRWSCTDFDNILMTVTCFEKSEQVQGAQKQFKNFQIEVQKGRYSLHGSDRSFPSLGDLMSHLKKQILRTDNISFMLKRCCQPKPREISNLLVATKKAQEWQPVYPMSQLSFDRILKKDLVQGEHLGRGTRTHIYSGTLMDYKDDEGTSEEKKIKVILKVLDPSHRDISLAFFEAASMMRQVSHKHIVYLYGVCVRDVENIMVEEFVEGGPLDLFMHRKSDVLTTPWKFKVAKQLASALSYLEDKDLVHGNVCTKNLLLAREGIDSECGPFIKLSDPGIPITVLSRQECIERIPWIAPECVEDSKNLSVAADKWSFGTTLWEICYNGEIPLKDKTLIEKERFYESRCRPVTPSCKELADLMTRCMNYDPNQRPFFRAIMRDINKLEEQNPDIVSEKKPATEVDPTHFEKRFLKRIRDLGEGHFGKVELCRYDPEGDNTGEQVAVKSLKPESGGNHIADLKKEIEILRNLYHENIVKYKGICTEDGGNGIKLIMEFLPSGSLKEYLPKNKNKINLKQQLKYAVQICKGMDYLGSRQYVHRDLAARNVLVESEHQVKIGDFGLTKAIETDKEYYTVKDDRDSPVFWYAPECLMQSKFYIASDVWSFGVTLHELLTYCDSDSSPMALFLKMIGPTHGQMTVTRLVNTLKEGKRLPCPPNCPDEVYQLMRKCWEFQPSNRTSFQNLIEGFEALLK
Experiment: Inhibition of JAK1 in human NCI-H1975 cells assessed as reduction in STAT3 phosphorylation after 2 hrs
Type: cell-based
pIC50: −log10 of the molar value.
outcome measure: pIC50

P = COc1ccc(-c2nc3c(NCC4CCNCC4)c(Cl)cnc3[nH]2)cc1
Q = COc1ccc(F)c(-c2nc3c(NCC4CCNCC4)c(Cl)cnc3[nH]2)c1
Select the item with the higher value of pIC50 from the options P and Q listed. Record your answer as the label of the chosen record.
P

1 = COc1cc(F)c(-c2nc3c(NCC4CCNCC4)c(Cl)cnc3[nH]2)cc1OC
2 = COc1cc(F)c(-c2nc3c(NCC4CCNCC4)c(Cl)cnc3[nH]2)cc1F
Select the item with the higher value of pIC50 from the options 1 and 2 listed. Record your answer as the label of the chosen record.
1
(1: 7.41, 2: 7.15)

1 = COc1ccc(-c2nc3c(NCC4CCNCC4)c(Cl)cnc3[nH]2)c(F)c1
2 = COc1ccc(-c2nc3c(NCC4CCNCC4)c(Cl)cnc3[nH]2)cc1OC
Select the item with the higher value of pIC50 from the options 1 and 2 listed. Record your answer as the label of the chosen record.
1

* * *

Molecular target: Tyrosine-protein kinase JAK3 (Homo sapiens, UniProt P52333)
Sequence (P52333 whole entry): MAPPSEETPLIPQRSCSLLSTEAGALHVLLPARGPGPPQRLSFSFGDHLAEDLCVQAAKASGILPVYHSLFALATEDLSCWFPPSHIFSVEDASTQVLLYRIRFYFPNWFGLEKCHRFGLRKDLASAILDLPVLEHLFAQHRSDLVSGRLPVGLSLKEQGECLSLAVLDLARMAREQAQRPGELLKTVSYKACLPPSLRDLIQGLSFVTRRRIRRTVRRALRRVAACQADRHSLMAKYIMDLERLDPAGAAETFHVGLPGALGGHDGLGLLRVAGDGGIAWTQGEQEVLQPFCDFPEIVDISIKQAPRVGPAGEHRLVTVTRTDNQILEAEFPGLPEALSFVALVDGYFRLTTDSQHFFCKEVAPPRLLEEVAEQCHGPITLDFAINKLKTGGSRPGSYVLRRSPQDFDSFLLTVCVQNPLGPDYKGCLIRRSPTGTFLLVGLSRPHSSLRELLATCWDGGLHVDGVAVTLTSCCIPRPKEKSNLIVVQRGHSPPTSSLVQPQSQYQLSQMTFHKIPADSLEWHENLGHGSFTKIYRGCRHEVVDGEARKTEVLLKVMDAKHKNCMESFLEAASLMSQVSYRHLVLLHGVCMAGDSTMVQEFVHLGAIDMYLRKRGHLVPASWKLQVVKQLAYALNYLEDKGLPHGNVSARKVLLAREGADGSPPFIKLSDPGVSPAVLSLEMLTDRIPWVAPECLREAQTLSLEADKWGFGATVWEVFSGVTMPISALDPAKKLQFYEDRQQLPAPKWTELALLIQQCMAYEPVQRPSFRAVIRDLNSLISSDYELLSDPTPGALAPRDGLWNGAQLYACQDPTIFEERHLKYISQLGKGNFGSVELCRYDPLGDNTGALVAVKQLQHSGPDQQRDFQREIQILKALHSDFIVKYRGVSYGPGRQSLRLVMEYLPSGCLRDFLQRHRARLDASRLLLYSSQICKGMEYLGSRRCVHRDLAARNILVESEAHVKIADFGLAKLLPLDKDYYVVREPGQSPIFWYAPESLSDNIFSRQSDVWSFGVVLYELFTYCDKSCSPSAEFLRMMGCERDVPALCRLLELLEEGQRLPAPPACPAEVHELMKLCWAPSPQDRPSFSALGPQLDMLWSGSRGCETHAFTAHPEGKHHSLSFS
Test: Inhibition of N-terminal GST-fused recombinant JAK3 (781 to 1124 residues) (unknown origin) expressed in insect cells using 5FAM-GEEPLYWSFPAKKK-NH2 as substrate by microfluidic capillary electrophoresis method
outcome measure: IC50 (µM)

Example entries begin here.
>>> numeric_result("COc1ccc(-c2nc3c(NCC4CCNCC4)c(Cl)cnc3[nH]2)cc1OC")
1.2
>>> numeric_result("COc1ccc(-c2nc3c(NCC4CCCNC4)c(Cl)cnc3[nH]2)cc1 (centres undefined)")
5.75
>>> numeric_result("COc1cc(F)c(-c2nc3c(NCC4CCNCC4)c(Cl)cnc3[nH]2)cc1OC")
8.3

a = COc1ccc(-c2nc3c(NCC4CCN(C)CC4)c(Cl)cnc3[nH]2)c(C)c1
b = COc1ccc(-c2nc3c(NCC4CCN(C)CC4)c(C(N)=O)cnc3[nH]2)cc1
# return whichever of a and b has the smaller IC50 Record your answer as the label of the chosen record.
b
